- assayed.target: GABA-A receptor; alpha-5/beta-3/gamma-2 (Homo sapiens, UniProt P18507+P28472+P31644)
- assay.notes: Negative allosteric modulation activity at human GABAA alpha5beta3gamma2 stably expressed in HEK cells by patch clamp method
- Type: cell-based
pIC50: −log10 of the molar value.
measurement.label: pIC50

[
  {
    "smi": "CC(C)CCC[C@@H](C)[C@H]1CC[C@H]2[C@@H]3C(=O)C=C4C=CCC[C@]4(C)[C@H]3CC[C@]12C",
    "measured.result": 4.71
  }
]

---

- assayed.target: GABA A receptor alpha-4/beta-3/gamma-2 (Homo sapiens, UniProt P18507+P28472+P48169)
- assay.notes: Negative allosteric modulation activity at human GABAA alpha4beta3gamma2 stably expressed in HEK cells by patch clamp method

[
  {
    "smi": "CC(C)CCC[C@@H](C)[C@H]1CC[C@H]2[C@@H]3C(=O)C=C4C=CCC[C@]4(C)[C@H]3CC[C@]12C",
    "unit.of.measurement": "nM",
    "IC50": 1000
  }
]

---

- assayed.target: GABA A receptor alpha-1/beta-1/gamma-2 (Homo sapiens, UniProt P14867+P18505+P18507)
- Sequence (P14867 whole entry, one chain of several): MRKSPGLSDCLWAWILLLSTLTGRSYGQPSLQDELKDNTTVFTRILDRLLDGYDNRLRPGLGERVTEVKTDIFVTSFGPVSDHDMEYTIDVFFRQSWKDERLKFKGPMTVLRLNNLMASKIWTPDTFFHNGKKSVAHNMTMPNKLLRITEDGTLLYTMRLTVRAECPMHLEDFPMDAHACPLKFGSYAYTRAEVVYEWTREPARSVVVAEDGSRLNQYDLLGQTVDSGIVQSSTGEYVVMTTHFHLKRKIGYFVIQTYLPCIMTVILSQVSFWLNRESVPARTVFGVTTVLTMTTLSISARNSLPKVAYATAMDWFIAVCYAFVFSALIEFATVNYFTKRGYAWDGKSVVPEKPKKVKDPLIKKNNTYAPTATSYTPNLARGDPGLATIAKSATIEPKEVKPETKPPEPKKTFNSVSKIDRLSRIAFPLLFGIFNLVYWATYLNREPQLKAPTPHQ
- Sequence (P18505 whole entry, one chain of several): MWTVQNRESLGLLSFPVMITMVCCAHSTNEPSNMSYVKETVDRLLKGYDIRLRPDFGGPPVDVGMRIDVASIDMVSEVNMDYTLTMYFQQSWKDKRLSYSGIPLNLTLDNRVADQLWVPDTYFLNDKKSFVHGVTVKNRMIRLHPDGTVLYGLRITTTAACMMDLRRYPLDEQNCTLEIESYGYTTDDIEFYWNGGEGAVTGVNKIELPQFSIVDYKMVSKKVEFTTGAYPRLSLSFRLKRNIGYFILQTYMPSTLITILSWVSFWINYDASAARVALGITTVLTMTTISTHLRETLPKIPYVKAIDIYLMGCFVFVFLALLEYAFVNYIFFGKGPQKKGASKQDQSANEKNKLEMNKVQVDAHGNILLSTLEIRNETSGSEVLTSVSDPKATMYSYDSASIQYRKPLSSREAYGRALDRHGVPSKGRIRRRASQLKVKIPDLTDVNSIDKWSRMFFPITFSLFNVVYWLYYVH
- assay.notes: Negative allosteric modulation activity at human GABAA alpha1beta1gamma2 stably expressed in HEK cells by whole cell patch clamp method

[
  {
    "smi": "CC(C)CCC[C@@H](C)[C@H]1CC[C@H]2[C@@H]3C(=O)C=C4C=CCC[C@]4(C)[C@H]3CC[C@]12C",
    "assayed.target": "GABA A receptor alpha-1/beta-1/gamma-2 (Homo sapiens, UniProt P14867+P18505+P18507)",
    "IC50 [nM]": 1500
  }
]

---

- assayed.target: GABA-A receptor; alpha-2/beta-3/gamma-2 (Homo sapiens, UniProt P18507+P28472+P47869)
- Sequence (P18507 whole entry): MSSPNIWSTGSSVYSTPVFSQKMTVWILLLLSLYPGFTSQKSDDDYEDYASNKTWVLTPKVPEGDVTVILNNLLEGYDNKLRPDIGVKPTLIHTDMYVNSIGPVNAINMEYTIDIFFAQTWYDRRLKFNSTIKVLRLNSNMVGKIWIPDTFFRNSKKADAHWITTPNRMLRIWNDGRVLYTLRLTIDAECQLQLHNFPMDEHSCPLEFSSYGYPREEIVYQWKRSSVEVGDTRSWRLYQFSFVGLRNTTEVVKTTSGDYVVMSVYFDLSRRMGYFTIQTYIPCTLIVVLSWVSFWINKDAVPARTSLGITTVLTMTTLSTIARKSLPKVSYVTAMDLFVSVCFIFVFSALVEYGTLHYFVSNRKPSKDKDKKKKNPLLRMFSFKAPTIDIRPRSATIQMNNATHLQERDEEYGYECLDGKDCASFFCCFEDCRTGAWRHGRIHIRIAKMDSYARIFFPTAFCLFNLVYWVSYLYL
- Sequence (P28472 whole entry): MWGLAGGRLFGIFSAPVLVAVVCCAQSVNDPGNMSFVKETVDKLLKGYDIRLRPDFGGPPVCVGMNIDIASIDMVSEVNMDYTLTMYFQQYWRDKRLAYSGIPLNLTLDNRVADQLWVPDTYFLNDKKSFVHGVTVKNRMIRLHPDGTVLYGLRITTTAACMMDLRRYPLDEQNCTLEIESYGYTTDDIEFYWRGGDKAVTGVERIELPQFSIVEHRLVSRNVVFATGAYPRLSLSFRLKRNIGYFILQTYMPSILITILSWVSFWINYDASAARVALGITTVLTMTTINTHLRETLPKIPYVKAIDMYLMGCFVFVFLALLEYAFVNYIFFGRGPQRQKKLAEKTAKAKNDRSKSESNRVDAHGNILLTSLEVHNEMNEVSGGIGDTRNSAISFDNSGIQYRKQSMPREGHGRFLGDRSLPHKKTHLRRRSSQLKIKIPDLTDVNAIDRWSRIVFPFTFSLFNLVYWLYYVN
- Sequence (P47869 whole entry): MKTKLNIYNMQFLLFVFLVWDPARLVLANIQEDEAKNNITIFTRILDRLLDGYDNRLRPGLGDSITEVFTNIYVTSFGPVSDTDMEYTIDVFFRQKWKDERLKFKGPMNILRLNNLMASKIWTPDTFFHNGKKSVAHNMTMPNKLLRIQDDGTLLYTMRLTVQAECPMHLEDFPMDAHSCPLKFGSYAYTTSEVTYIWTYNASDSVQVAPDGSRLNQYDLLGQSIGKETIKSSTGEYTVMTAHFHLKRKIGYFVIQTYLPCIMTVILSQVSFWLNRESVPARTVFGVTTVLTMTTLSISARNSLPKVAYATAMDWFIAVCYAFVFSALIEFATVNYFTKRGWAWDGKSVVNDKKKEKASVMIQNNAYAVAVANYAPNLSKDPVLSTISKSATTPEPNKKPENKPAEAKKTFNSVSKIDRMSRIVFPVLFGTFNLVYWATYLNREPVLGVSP
- assay.notes: Negative allosteric modulation activity at human GABAA alpha2beta3gamma2 stably expressed in HEK cells by whole cell patch clamp method

[
  {
    "smi": "CC(C)CCC[C@@H](C)[C@H]1CC[C@H]2[C@@H]3C(=O)C=C4C=CCC[C@]4(C)[C@H]3CC[C@]12C",
    "IC50 [µM]": 15.7
  }
]

---

- assay.notes: Reduction in Kcl-induced cytosolic calcium ion concentration in mouse DRG neurons at 10 microg/ml measured after 1 hr by Fura2AM dye based fluorescence microscopic analysis in response to Kcl
- Assay type: functional, Neuron
- Design: scale not given: the % may be the effect or the level left
- conditions.used: dose 10 µg/ml

[
  {
    "smi": "CC(C)C(=O)CC[C@@H](C)[C@H]1CC[C@H]2[C@@H]3C(=O)C=C4C=CCC[C@]4(C)[C@H]3CC[C@]12C",
    "Activity (%)": 1
  },
  {
    "smi": "C[C@H](CC[C@H](O)C(C)(C)O)[C@H]1CC[C@H]2[C@@H]3C(=O)C=C4C[C@@H](O)CC[C@]4(C)[C@H]3CC[C@]12C",
    "Activity (%)": 49
  },
  {
    "smi": "C[C@H](CC[C@@H](O)C(C)(C)O)[C@H]1CC[C@H]2[C@@H]3C(=O)C=C4C=CCC[C@]4(C)[C@H]3CC[C@]12C",
    "Activity (%)": 4
  },
  {
    "smi": "C[C@H](CCC(=O)C(C)(C)O)[C@H]1CC[C@H]2[C@@H]3C(=O)C=C4C=CCC[C@]4(C)[C@H]3CC[C@]12C",
    "Activity (%)": 2
  }
]

---

- assayed.target: GABA-A receptor; alpha-3/beta-3/gamma-2 (Homo sapiens, UniProt P18507+P28472+P34903)
- Sequence (P18507 whole entry): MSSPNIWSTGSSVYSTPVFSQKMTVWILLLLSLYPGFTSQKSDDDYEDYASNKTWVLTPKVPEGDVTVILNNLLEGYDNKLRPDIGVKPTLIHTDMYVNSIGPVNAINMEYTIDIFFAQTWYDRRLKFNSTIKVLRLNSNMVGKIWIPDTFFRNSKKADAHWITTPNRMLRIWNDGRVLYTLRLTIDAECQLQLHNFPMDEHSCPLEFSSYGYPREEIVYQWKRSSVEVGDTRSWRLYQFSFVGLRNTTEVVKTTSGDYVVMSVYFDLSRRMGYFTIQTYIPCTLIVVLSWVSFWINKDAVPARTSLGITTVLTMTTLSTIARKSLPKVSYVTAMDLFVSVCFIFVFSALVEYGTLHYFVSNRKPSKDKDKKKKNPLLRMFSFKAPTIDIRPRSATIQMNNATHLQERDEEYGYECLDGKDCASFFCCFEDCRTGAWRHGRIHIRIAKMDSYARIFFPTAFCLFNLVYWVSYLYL
- Sequence (P28472 whole entry): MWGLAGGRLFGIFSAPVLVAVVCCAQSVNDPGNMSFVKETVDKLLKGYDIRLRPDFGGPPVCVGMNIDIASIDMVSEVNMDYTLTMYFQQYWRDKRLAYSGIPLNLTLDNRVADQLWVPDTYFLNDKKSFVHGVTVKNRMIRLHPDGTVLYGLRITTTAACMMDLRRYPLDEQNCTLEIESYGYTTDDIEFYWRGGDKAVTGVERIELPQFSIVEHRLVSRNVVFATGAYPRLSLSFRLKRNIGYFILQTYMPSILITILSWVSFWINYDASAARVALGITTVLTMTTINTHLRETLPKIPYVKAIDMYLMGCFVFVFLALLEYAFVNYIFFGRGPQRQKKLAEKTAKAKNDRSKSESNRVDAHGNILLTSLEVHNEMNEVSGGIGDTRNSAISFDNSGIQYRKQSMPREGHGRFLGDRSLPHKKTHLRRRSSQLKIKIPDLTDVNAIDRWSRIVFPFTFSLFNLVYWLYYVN
- Sequence (P34903 whole entry): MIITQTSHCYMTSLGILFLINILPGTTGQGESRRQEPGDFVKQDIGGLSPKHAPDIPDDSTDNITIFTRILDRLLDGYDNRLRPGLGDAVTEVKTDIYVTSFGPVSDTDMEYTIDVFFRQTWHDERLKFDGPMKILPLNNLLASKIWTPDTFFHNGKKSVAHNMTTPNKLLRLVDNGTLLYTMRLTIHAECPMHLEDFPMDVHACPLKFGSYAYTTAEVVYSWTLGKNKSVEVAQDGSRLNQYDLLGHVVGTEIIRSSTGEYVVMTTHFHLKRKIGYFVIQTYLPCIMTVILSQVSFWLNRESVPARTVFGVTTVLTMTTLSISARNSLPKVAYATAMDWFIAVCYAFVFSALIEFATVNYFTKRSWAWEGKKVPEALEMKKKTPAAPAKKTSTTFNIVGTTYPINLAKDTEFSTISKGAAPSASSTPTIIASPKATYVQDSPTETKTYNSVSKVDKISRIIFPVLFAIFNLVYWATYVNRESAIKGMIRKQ
- assay.notes: Negative allosteric modulation activity at human GABAA alpha3beta3gamma2 stably expressed in HEK cells by whole cell patch clamp method
- Type: cell-based
pIC50: −log10 of the molar value.

[
  {
    "smi": "CC(C)CCC[C@@H](C)[C@H]1CC[C@H]2[C@@H]3C(=O)C=C4C=CCC[C@]4(C)[C@H]3CC[C@]12C",
    "assayed.target": "GABA-A receptor; alpha-3/beta-3/gamma-2 (Homo sapiens, UniProt P18507+P28472+P34903)",
    "pIC50": 5.26
  }
]

Where do the numbers come from? From ChEMBL document CHEMBL5032490.
